Parameter EC50: see the listing below.
molecular target: hTRPM8 (Homo sapiens, UniProt Q7Z2W7); construct: expressed in transfected cells; assay: hTRPM8 cell line agonist assay (section 2.1); format: cell-based; conditions: cell line stably expressing hTRPM8
Sequence (Q7Z2W7 whole entry): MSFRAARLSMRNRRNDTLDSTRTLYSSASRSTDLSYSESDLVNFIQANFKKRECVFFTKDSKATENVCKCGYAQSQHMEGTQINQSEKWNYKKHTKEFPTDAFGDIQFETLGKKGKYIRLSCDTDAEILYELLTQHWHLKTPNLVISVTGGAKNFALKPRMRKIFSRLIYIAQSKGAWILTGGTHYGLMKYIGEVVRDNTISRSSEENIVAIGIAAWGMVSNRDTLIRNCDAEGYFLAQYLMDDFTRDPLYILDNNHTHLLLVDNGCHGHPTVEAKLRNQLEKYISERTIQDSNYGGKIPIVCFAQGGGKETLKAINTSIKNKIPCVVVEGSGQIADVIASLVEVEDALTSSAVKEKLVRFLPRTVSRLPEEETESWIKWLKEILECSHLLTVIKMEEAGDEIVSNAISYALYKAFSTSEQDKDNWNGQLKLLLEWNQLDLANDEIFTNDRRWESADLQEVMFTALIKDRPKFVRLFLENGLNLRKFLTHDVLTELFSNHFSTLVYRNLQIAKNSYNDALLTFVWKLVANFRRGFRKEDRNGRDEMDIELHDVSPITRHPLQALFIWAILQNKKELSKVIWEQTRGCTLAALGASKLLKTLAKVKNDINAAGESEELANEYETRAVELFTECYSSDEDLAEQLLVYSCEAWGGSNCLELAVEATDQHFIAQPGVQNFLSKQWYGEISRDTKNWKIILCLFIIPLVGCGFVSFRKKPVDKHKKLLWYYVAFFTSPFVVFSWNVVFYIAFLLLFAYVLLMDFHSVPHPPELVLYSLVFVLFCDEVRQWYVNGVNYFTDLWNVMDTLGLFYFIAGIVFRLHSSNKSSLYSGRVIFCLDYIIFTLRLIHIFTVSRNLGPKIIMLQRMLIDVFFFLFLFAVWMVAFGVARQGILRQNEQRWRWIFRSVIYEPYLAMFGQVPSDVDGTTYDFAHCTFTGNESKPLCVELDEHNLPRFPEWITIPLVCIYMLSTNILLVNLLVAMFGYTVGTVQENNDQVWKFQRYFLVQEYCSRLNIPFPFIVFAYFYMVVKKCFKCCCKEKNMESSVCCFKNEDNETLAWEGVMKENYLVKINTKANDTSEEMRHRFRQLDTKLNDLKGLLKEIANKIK
State just the number; it will be interpreted in nM.

These solved cases illustrate the format of a correct answer.
>>> df
                                   molecule                           targetentity  valuetype  resultunit  readoutvalue
0  CN1C(=O)N(CC(=O)c2ccc[nH]2)C(=O)C1(C)C1CC2CCC1C2 (single isomer, unassigned)  hTRPM8 (Homo sapiens, UniProt Q7Z2W7)       EC50          nM           223
1  CN1C(=O)N(CC(=O)c2cccnc2)C(=O)C1(C)C1CCCCC1 (stereo not drawn)  hTRPM8 (Homo sapiens, UniProt Q7Z2W7)       EC50          nM           172

Request: Which measured EC50 value corresponds to CC1CCCC1C1(C)C(=O)N(CC(=O)c2ccc[nH]2)C(=O)N1C (stereo not drawn) ?
Result: 205

Request: Give its EC50 value. Item: CN1C(=O)N(CC(=O)c2ccccc2)C(=O)C1(C)C1CC2CCC1CC2 (single isomer, unassigned) [Compound 2.A3]
Result: 100

Request: I have this molecule here, CN1C(=O)N(CC(=O)c2ccccc2)C(=O)C1(C)C1CC2CCC1CC2 (stereo not drawn) [Compound 2.I3] , and I need its recorded EC50.
Result: 163

Request: Entry CN1CC(C)(C2=CCCCC2)C(=O)N(CC(=O)c2ccccc2)C1=O (stereo not drawn) has what EC50?
Result: 135

Request: Look up EC50: CN1C(=O)N(CC(=O)c2ccc(O)cc2)C(=O)C1(C)C1CCCCC1 (stereo not drawn)
Result: 124

Request: Please give the measured EC50 for this molecule: CC1CCCC1C1(C)C(=O)N(CC(=O)c2ccccc2)C(=O)N1C (mixture of isomers)
Result: 182

* * *

# EC50 Ratio (WS3) per record follows
Biological target: hTRPM8 (Homo sapiens, UniProt Q7Z2W7)
Construct: expressed in transfected cells
Assay: hTRPM8 cell line agonist assay (section 2.1)
Assay type: cell-based
Conditions: relative to WS3 screened on the same day; greater than one = more potent than WS3
Method: A cell line which stably expresses hTRPM8 was used in biological assays in association with testing the present compounds with cool-tasting or -feeling properties. Typical compound concentrations tested were 100 μM, 50 μM, 10 μM, 1 μM, and 0.5 μM. The present compounds have shown activity as agonists of hTRPM8. Assay results for compounds are illustrated in the table below. […]
Write the number on its own, no unit after it.

                                   molecule         valuetype  readoutvalue
0  CCN1C(=O)N(CC(=O)c2ccccc2)C(=O)C1(C)C1CCCCC1 (stereo not shown) [Compound 2.P3]  EC50 Ratio (WS3)          38.1
1  CN1C(=O)N(CC(=O)c2ccccc2)C(=O)C1(C)C1CC2CCC1CC2 (stereo not shown) [Compound 2.I3]  EC50 Ratio (WS3)          33.8
2  CN1C(=O)N(CC(=O)c2cccnc2)C(=O)C1(C)CCc1ccccc1 (stereo not shown) [Compound 2.U5]  EC50 Ratio (WS3)           0.9
3  CN1C(=O)N(CC(=O)c2ccc[nH]2)C(=O)C1(C)C1CC2CCC1C2 (single isomer, unassigned) [Compound 2.O3]  EC50 Ratio (WS3)          21.6
4  CN1CC(C)(C2=CCCCC2)C(=O)N(CC(=O)c2ccccc2)C1=O (stereo not shown) [Compound 2.A1]  EC50 Ratio (WS3)          54.6
5  CN1CC(C)(C2=CCCCC2)CN(CC(=O)c2ccccc2)C1=O (stereo not shown) [Compound 2.F1]  EC50 Ratio (WS3)           1.6

Request: Sample CN1C(=O)N(CC(=O)c2cccc(O)c2)C(=O)C1(C)C1CC2CCC1C2 (stereo not shown) [Compound 2.C3] — what was its EC50 Ratio (WS3)?
Result: 49.1

Request: Which value of EC50 Ratio (WS3) has been reported for CN1C(=O)N(CC(=O)c2ccccc2)C(=O)C1(C)C1=CCCCC1 (stereo not shown) [Compound 2.F3] in the records?
Result: 44.0

Request: # get_value(readout='EC50 Ratio (WS3)', item= CC1CCCC1C1(C)C(=O)N(CC(=O)c2ccc[nH]2)C(=O)N1C (stereo not shown) [Compound 2.N3] )
Result: 24.1

Request: # input molecule: CC1CCCC1C1(C)C(=O)N(CC(=O)c2cccc(O)c2)C(=O)N1C (mixture of isomers) [Compound 2.G3] ; wanted: its EC50 Ratio (WS3)
Result: 32.6

Request: Sample CN1C(=O)N(CC(=O)c2cccnc2)C(=O)C1(C)C1CCCCC1 (stereo not shown) [Compound 2.K3] — what was its EC50 Ratio (WS3)?
Result: 30.1

Request: Given the molecule CN1CC(C)(C2CCCCC2)C(=O)N(CC(=O)c2cccnc2)C1=O (stereo not shown) [Example 2.2] , what is its reported EC50 Ratio (WS3)?
Result: 13.5
